Target: human Cat L (Homo sapiens (Human))
Sequence (P07711 114-333): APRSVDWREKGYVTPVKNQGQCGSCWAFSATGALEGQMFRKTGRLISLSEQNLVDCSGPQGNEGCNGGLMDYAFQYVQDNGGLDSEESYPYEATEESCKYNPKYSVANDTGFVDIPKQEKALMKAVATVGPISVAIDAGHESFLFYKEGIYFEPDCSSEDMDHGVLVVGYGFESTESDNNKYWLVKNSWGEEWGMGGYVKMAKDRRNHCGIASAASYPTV
Assay: Cathepsin enzyme inhibition assay (human Cat L)
Format: biochemical
Settings: enzyme 1 nM, substrate Z-Val-Val-Arg-AMC 20 μM, pH 6.5
Where a name gives a salt, the structure may show the parent alone.
Assay Endpoint: pIC50
Would you please state pIC50, meaning minus log10 of the concentration in mol/L, as a bare number?

[
  {
    "Compound": "CC(C)(C)OC(=O)N1CC(C(=O)N2C[C@H](S(=O)(=O)c3ccc(OCC(F)(F)F)cc3Cl)C[C@H]2C(=O)NC2(C#N)CC2)(c2ccc(Cl)cn2)C1 [Example 4]",
    "pIC50": 5.91
  },
  {
    "Compound": "COc1ccc(S(=O)(=O)[C@@H]2C[C@@H](C(=O)NC3(C#N)CC3)N(C(=O)C3(c4ccc(Cl)cn4)CNC3)C2)c(Cl)c1 [Example 2]",
    "pIC50": 7.42
  },
  {
    "Compound": "CN1CC(C(=O)N2C[C@H](S(=O)(=O)c3ccccc3Cl)C[C@H]2C(=O)NC2(C#N)CC2)(c2ncc(Cl)cc2F)C1 [Example 16]",
    "pIC50": 7.40
  },
  {
    "Compound": "C[C@H](Oc1ccc(S(=O)(=O)[C@@H]2C[C@@H](C(=O)NC3(C#N)CC3)N(C(=O)C3(c4ncc(Br)cc4F)CCN3C(=O)OC(C)(C)C)C2)c(Cl)c1)C(F)(F)F (stereo partly drawn) [Example 30]",
    "pIC50": 5.98
  },
  {
    "Compound": "Cc1cc(-c2ccc(S(=O)(=O)[C@@H]3C[C@@H](C(=O)NC4(C#N)CC4)N(C(=O)C4(c5ncc(Br)cc5F)CCN4C(=O)OC(C)(C)C)C3)c(Cl)c2)ccn1 (stereo partly drawn) [Example 42]",
    "pIC50": 6.18
  }
]

stdin: What measured pIC50 goes with Cc1cc(-c2ccc(S(=O)(=O)[C@@H]3C[C@@H](C(=O)NC4(C#N)CC4)N(C(=O)C4(c5ncc(Cl)cc5F)CCN4)C3)c(Cl)c2)ccn1 (stereo partly drawn) [Example 43, hydrochloride] ?
stdout: 7.06

stdin: What measured pIC50 goes with C[C@H](Oc1ccc(S(=O)(=O)[C@@H]2C[C@@H](C(=O)NC3(C#N)CC3)N(C(=O)C3(c4ncc(Br)cc4F)CN(CC(F)F)C3)C2)c(Cl)c1)C(F)(F)F [Example 49] ?
stdout: 8.30

stdin: What measured pIC50 goes with C[C@H](Oc1ccc(S(=O)(=O)[C@@H]2C[C@@H](C(=O)NC3(C#N)CC3)N(C(=O)C3(c4ncc(Cl)cc4F)CCN3C(=O)OC(C)(C)C)C2)c(Cl)c1)C(F)(F)F (stereo partly drawn) [Example 28] ?
stdout: 6.25

stdin: What measured pIC50 goes with COc1ccc(S(=O)(=O)[C@@H]2C[C@@H](C(=O)NC3(C#N)CC3)N(C(=O)C3(c4ccc(Cl)cn4)CN(C)C3)C2)c(Cl)c1 [Example 3] ?
stdout: 6.53

====

Target: human Cat S (Homo sapiens (Human))
Sequence (P25774 115-331): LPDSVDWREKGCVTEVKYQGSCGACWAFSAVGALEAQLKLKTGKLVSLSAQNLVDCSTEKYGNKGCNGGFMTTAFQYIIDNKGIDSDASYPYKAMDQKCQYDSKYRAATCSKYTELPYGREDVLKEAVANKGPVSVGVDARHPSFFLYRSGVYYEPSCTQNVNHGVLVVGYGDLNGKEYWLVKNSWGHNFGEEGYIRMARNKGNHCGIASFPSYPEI
Test: Cathepsin enzyme inhibition assay (human Cat S)
Assay type: biochemical
Details: enzyme 1 nM, substrate Z-Val-Val-Arg-AMC 20 μM, pH 6.5
Structures can show the parent of a compound that is named as a salt.
Assay Endpoint: IC50 (nM)
// return numeric value only (unit: nM, not printed)

Past entries and their recorded results:
[
  {
    "Compound": "N#CC1(NC(=O)[C@@H]2C[C@@H](S(=O)(=O)c3ccc(OCC(F)(F)F)cc3Cl)CN2C(=O)C2(c3ccc(Br)cn3)CNC2)CC1",
    "Measured Result": 3.82
  },
  {
    "Compound": "COc1ccc(S(=O)(=O)[C@@H]2C[C@@H](C(=O)NC3(C#N)CC3)N(C(=O)C3(c4ccc(Cl)cn4)CNC3)C2)c(Cl)c1",
    "Measured Result": 1.49
  },
  {
    "Compound": "C[C@H](Oc1ccc(S(=O)(=O)[C@@H]2C[C@@H](C(=O)NC3(C#N)CC3)N(C(=O)C3(c4ncc(Br)cc4F)CCN3C(=O)OC(C)(C)C)C2)c(Cl)c1)C(F)(F)F (some centres unmarked)",
    "Measured Result": 2.22
  },
  {
    "Compound": "Cn1cc(-c2ccc(S(=O)(=O)[C@@H]3C[C@@H](C(=O)NC4(C#N)CC4)N(C(=O)C4(c5ncc(Cl)cc5F)CCN4)C3)c(Cl)c2)cn1 (some centres unmarked) [Example 47, hydrochloride]",
    "Measured Result": 0.791
  }
]

stdin: What measured IC50 goes with CC(C)(C)OC(=O)N1CCC1(C(=O)N1C[C@H](S(=O)(=O)c2ccc(F)cc2Cl)C[C@H]1C(=O)NC1(C#N)CC1)c1ncc(Br)cc1F (some centres unmarked) [Example 25] ?
stdout: 0.492

stdin: What measured IC50 goes with N#CC1(NC(=O)[C@@H]2C[C@@H](S(=O)(=O)c3ccc(OCC(F)(F)F)cc3Cl)CN2C(=O)C2(c3ccc(Br)cn3)CN(CC(F)F)C2)CC1 ?
stdout: 0.779

stdin: What measured IC50 goes with CC(C)(C)OC(=O)N1CCC1(C(=O)N1C[C@H](S(=O)(=O)c2ccc(F)cc2Cl)C[C@H]1C(=O)NC1(C#N)CC1)c1ncc(Cl)cc1F (some centres unmarked) [Example 21] ?
stdout: 1.04

====

Target: human Cat S (Homo sapiens (Human))
Experiment: Cathepsin enzyme inhibition assay (human Cat S)
Format: biochemical
Conditions: enzyme 1 nM, substrate Z-Val-Val-Arg-AMC 20 μM, pH 6.5
Counter-ions that a name gives are not always drawn.
We begin with a simple list: items and their reported IC50.
// return numeric value only (unit: nM, not printed)

Past entries and their recorded results:
[
  {
    "Compound": "N#CC1(NC(=O)[C@@H]2C[C@@H](S(=O)(=O)c3ccccc3Cl)CN2C(=O)C2(c3ncc(Br)cc3F)CNC2)CC1 [Example 13]",
    "Unit Symbol": "nM",
    "IC50": 1.09
  },
  {
    "Compound": "COC(=O)N1CC(C(=O)N2C[C@H](S(=O)(=O)c3ccc(O[C@@H](C)C(F)(F)F)cc3Cl)C[C@H]2C(=O)NC2(C#N)CC2)(c2ncc(Br)cc2F)C1 [Example 51]",
    "Unit Symbol": "nM",
    "IC50": 2
  },
  {
    "Compound": "CC(C)(C)OC(=O)N1CCC1(C(=O)N1C[C@H](S(=O)(=O)c2ccc(F)cc2Cl)C[C@H]1C(=O)NC1(C#N)CC1)c1ncc(Br)cc1F (stereo partly shown) [Example 22]",
    "Unit Symbol": "nM",
    "IC50": 1.26
  },
  {
    "Compound": "C[C@H](Oc1ccc(S(=O)(=O)[C@@H]2C[C@@H](C(=O)NC3(C#N)CC3)N(C(=O)C3(c4ncc(Br)cc4F)CNC3)C2)c(Cl)c1)C(F)(F)F [Example 34]",
    "Unit Symbol": "nM",
    "IC50": 3.48
  },
  {
    "Compound": "CC(C)(C)OC(=O)N1CC(C(=O)N2C[C@H](S(=O)(=O)c3ccccc3Cl)C[C@H]2C(=O)NC2(C#N)CC2)(c2ncc(Br)cc2F)C1 [Example 11]",
    "Unit Symbol": "nM",
    "IC50": 1.27
  }
]

stdin: Return IC50 measured with human Cat S (Homo sapiens (Human)) given this compound: C[C@H](Oc1ccc(S(=O)(=O)[C@@H]2C[C@@H](C(=O)NC3(C#N)CC3)N(C(=O)C3(c4ncc(Br)cc4F)CCN3)C2)c(Cl)c1)C(F)(F)F (stereo partly shown) [Example 39, hydrochloride]
stdout: 5.46

stdin: Return IC50 measured with human Cat S (Homo sapiens (Human)) given this compound: N#CC1(NC(=O)[C@@H]2C[C@@H](S(=O)(=O)c3ccccc3Cl)CN2C(=O)C2(c3ncc(Cl)cc3F)CNC2)CC1 [Example 12]
stdout: 1.07
